Tested on: Wnt activity (Sp5-Luc reporter, SW480 colon carcinoma cells)
Assay: Screening assay for Wnt activity: Sp5-Luc reporter gene assay in SW480 cells
Format: cell-based
Details: Homo sapiens, 42 h incubation, luminescence
PARAMETER: IC50 (µM)
Expressed in µM, but write only the number.

Asked: Bench note: what IC50 did `CC(C)C(=O)Nc1cncc(-c2ccc3[nH]nc(-c4nc5c(-c6ccccc6F)nccc5[nH]4)c3c2)c1` show?
Given back: 0.005

Asked: Bench note: what IC50 did `CN(C)c1cncc(-c2ccc3[nH]nc(-c4nc5c(-c6cccc(F)c6)nccc5[nH]4)c3c2)c1` show?
Given back: 0.004

Asked: Bench note: what IC50 did `CN1CCN(c2nccc3[nH]c(-c4n[nH]c5ccc(-c6cncc(CN7CCCCC7)c6)cc45)nc23)CC1` show?
Given back: 0.172

Asked: Bench note: what IC50 did `Fc1cncc(-c2ccc3[nH]nc(-c4nc5c(N6CCC(F)(F)CC6)nccc5[nH]4)c3c2)c1` show?
Given back: 0.315
